Tested on: PvdQ acylase [Pseudomonas aeruginosa LESB58]
Test: P. aeruginosa PvdQ acylase inhibitors, primary screen, biochemical, fluorescence, plate reader and imaging, single point (AID 488965);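 note: 0% = vehicle neutral wells and 100% = reference inhibitor wells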
Settings: purified PvdQ acylase, at 10 µM, stronger effect = higher value
About 210 (0.062%) of roughly 340,000 compounds were called active. The entries come from a sample that favours actives as a whole.
observable: inhibition (%)
Express your answer in %, writing the number without its unit.

Known results for molecules:
CCCCNC(=O)C1(c2ccc(OC)cc2)CCOCC1 = -4.05
O=C(N/C(=C/c1ccc(Cl)cc1)C(=O)N1CCCCC1)c1ccco1 = -10.7

Request - read-out inhibition | tested on PvdQ acylase [Pseudomonas aeruginosa LESB58] | molecule CCc1cccc(NC(=O)CCCN2C(=O)C(c3ccccc3)Oc3cccnc32)c1 (stereo unspecified)
-6.79

Item: O=C1C=CC(=O)N1c1ccc(N2CCCCC2)cc1
-13.5

Item: CCCCCCNS(=O)(=O)c1ccccc1Br
-11.4

Item: Cc1ccc(N2CC(C(=O)Nc3cc(Cl)ccc3-n3cncn3)CC2=O)cc1 (stereo unspecified)
-12.4

Item: CNC[C@H](CC1CCCCC1)NC[C@H](NCCC1CCCC1)[C@H](C)O
-4.64

Item: Cc1c(C(=O)NC(=S)NCc2cccnc2)oc2ccccc12
-8.97

Item: O=C(CNC(=O)OCc1ccccc1)NC1CCCCNC1=O (stereo unspecified)
-2.51

Item: COc1ccc(NC(=O)C2CCC(CNC(=O)[C@@H]3Cc4ccccc4CN3)CC2)cc1 (stereo partly specified)
-2.14

Item: O=C(Nc1ccc(OCC(=O)N2CCOCC2)cc1)c1cc(F)c(F)cc1Cl
-15.7

###

Measured inhibition, listed per entry for reference.
Tested on: PvdQ acylase [Pseudomonas aeruginosa LESB58]
Test: P. aeruginosa PvdQ acylase inhibitors, primary screen, biochemical, fluorescence, plate reader and imaging, single point (AID 488965);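 note: 0% = vehicle neutral wells and 100% = reference inhibitor wells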
Settings: purified PvdQ acylase, at 10 µM, stronger effect = higher value
In all, about 340,000 compounds went through this assay and about 210 (0.062%) were called active. The sample as a whole holds a higher share of actives than the screen did.
Express your answer in %, writing the number without its unit.

Known results for molecules:
O=C(CN(c1ccccc1)S(=O)(=O)c1ccc(Cl)cc1)Nc1ccccc1C(=O)N1CCCC1 = -7.63
C#CCOCCOCCOCCNc1nc(N2CCN(C(=O)[C@H](CO)n3cc([C@@H](N)C(C)C)nn3)CC2)nc(N2CCN(C(=O)[C@H](CCC(=O)O)n3cc([C@@H](N)[C@H](C)CC)nn3)CC2)n1 = -4.25
O=C(NCc1ccco1)/C(=C/c1cccc([N+](=O)[O-])c1)NC(=O)c1ccco1 = 5.34
CC(Sc1nnc(Cc2ccc([N+](=O)[O-])cc2)o1)C(N)=O (centres undefined) = 5.89
CN(C)c1ccc(/C=C/C(=O)c2ccc(O)cc2)cc1[N+](=O)[O-] = -3.3

Can you look up the measured inhibition of C=CCc1cccc2cc(C(=O)OCC)c(=O)oc12 for me?
13.8

Item: COc1ccc(N2CCN(C(=O)CN3C(=O)COc4ccccc43)CC2)cc1
-3.63

Item: O=C(/C=C/c1ccc(Cl)c([N+](=O)[O-])c1)c1ccc(O)cc1
42

Item: CCOC(=O)c1cc2cc3ccccc3cc2oc1=O
65.9
